tested system: Gamma-aminobutyric acid receptor subunit alpha-1 (Rattus norvegicus, UniProt P62813); further: assay procedure not described here
Sequence (P62813 whole entry): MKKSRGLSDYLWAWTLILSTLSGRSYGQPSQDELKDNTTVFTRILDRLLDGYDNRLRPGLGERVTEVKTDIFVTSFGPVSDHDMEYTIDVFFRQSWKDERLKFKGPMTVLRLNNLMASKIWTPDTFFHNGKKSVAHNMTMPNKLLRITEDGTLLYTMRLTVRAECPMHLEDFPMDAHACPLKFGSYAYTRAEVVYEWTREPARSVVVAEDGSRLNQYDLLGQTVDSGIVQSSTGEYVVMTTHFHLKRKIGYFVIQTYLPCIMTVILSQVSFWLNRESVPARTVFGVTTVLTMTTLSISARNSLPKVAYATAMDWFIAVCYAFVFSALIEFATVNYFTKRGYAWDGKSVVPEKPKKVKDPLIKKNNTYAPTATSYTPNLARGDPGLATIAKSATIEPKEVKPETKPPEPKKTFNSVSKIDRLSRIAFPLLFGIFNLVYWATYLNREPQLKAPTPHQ
Format: functional
Measured AC50, listed per entry.

COc1ccc2nc3cc(Cl)ccc3c(Nc3cc(CN4CCCC4)c(O)c(CN4CCCC4)c3)c2n1 [PYRONARIDINE]	> 30 µM
CC(=O)OCC(=O)[C@@]1(O)[C@H](C)C[C@H]2[C@@H]3CCC4=CC(=O)C=C[C@]4(C)[C@@]3(F)[C@@H](O)C[C@@]21C [DEXAMETHASONE ACETATE]	> 10 µM
Nc1ccc(S(=O)(=O)Nc2nccs2)cc1 [SULFATHIAZOLE]	> 10 µM
CC(N)C(O)c1ccccc1 (stereo not drawn) [PHENYLPROPANOLAMINE]	> 10 µM

Consider C#C[C@]1(O)CC[C@H]2[C@@H]3CCC4=CC(=O)CC[C@@H]4[C@H]3C(=C)C[C@@]21CC [ETONOGESTREL] . Its measured AC50 is 27 µM

Consider Cc1ncc2n1-c1ccc(Cl)cc1C(c1ccccc1F)=NC2 [MIDAZOLAM] . Its measured AC50 is 0.0025 µM

Consider OCc1cc(C(O)CNCCCCCCOCCCCc2ccccc2)ccc1O (stereo not drawn) [SALMETEROL] . Its measured AC50 is > 10 µM

Consider Cc1noc(NS(=O)(=O)c2ccc(N)cc2)c1C [SULFISOXAZOLE] . Its measured AC50 is > 10 µM

Source listed as ChEMBL document CHEMBL5291721.
